All values here come from patent US12006294B2.

test system: Hela Cells; test: Cellular ER stress model (tunicamycin, WST-8 cell viability); conditions: Homo sapiens, HeLa, 48 h, read-out: % Cell Survival Cmpd(2.5 μM) + Tuni, Hela cells, compound 2.5 μM + tunicamycin, WST-8 viability 48 hours after tunicamycin treatment
Counter-ions that a name gives are not always drawn.
API: label(entry) gives Fulfilled if the entry's viability at 2.5 µM is strictly smaller than 50%; on equality or larger values it gives Not fulfilled.

Known results for compounds:
Compound: Fc1ccccc1/C=N/NC1=NCCN1 [JM2-115-2, hydrochloride]
Discrete label: Fulfilled
--
Compound: Clc1cccc(CC2=NCCCN2)c1Cl [JM3-181-2]
Discrete label: Fulfilled
--
Compound: Clc1cccc(CC2=NCCN2)c1Cl [JM3-179-2]
Discrete label: Fulfilled
--
Compound: Clc1ccc(/C=N/NC2=NCCN2)cc1Cl [JM2-91-2, hydrochloride]
Discrete label: Not fulfilled
--
Compound: N=C(N)N/N=C/c1cccc(Cl)c1Cl [BC2-7-1, acetate]
Discrete label: Not fulfilled
--
Compound: O=[N+]([O-])c1cccc(Cl)c1/C=N/NC1=NCCN1 [JM2-89-2, hydrochloride]
Discrete label: Not fulfilled

Please determine if NC(=O)N/N=C/c1ccccc1F [JM3-221-2, hydrochloride] is below 50% in terms of viability at 2.5 µM.
Fulfilled

Please determine if Cc1cc(=O)nc(N/N=C/c2c(Cl)ccc(Cl)c2Cl)[nH]1 [JM3-201-2] is below 50% in terms of viability at 2.5 µM.
Fulfilled

Please determine if N=C(N)N/N=C/c1c(C(F)(F)F)cccc1C(F)(F)F [JM3-141-2, acetate] is below 50% in terms of viability at 2.5 µM.
Fulfilled

Please determine if Clc1cccc(Cl)c1CC1=NCCN1 [JM2-87-2] is below 50% in terms of viability at 2.5 µM.
Not fulfilled
